Assay: isobaric coefficient of expansion
Conditions: 298.15 K; 30000 kPa; Liquid; DSC
Each entry below carries its recorded isobaric coefficient of expansion.

CCCCCCCCCCCC 0.000827 1/K
c1ccccc1 0.00105 1/K

API: the following record is the query input.
Hello, please tell me recorded isobaric coefficient of expansion for this one: CCCCCCCCCC
0.000871 1/K

###

Assay: isobaric coefficient of expansion
Conditions: 338.15 K; 10000 kPa; Liquid; DSC
EXPERIMENTAL READOUT: isobaric coefficient of expansion

CCCCCCCCCC 0.00103 1/K

Hello, please tell me recorded isobaric coefficient of expansion for this one: CCCCCCCCCCCCCC
0.000897 1/K

Hello, please tell me recorded isobaric coefficient of expansion for this one: CCCCCCCCC
0.00108 1/K
